- SYSTEM: T1, AAV9 (adeno-associated virus 9)
- T1 construct: also called adeno-associated virus serotype 9
- TEST DESCRIPTION: SPR, AAV amine-coupled to CM5 chip;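 further: nanobodies flowed as analyte at seven concentrations spanning 1–100 nM over immobilized AAV (500–800 RU), kinetic constants derived by fitting the binding curves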
Examples of binders with documented kon follow.
The reply should be a number in M⁻¹ s⁻¹, with the unit left off.

A4-059 (VHH) VHH: VQLQESGGGAVQPGGSLRLSCAASGSHFSLNTMGWYRRAPGKQRELVATVTRGGSTNYADSVKGRFTISRDNAKNTIYLQMNSLRPEDTAVYYCHVDEVRQSTWTTSNLWGQGTQVTVSS    117000

Query binder follows.
Task item: Using known records, supply kon for A4-070 (VHH) VHH: VQLQESGGGLVQPGGSLRLSCAASGSIFSINSMGWYRQAPGKWRELVATVTRGGSTNYANSVKGRFTISRDNAKNTVYLQMNTLRPEDTAVYYCHLDEVRDSSWTTSNLWGQGTQVTVSS
Reply: 3380

Origin of measurements: patent US20260193326A1
